# Lookup of reported response vs control in vivo at 100 mg/kg keyed by entry
tested on: leukemia L-1210; experiment: Antitumour activity in mice inoculated intraperitoneally with leukemia L-1210 (survival, T/C); assay type: in vivo, CDF-1 male mice; details: Mus musculus, L1210, ip; 100 mg/kg i.p., directly after injection of L-1210, after 2 days and after 6 days
// return numeric value only (unit: %, not printed)

// known answers, use as guide
[[record]]
compound_structure = "CCCC(=O)Nc1ccn([C@@H]2O[C@H](COP(=O)(O)O)[C@@H](O)[C@@H]2O)c(=O)n1"
measured_on = "leukemia L-1210"
value_reported = 105

[[record]]
compound_structure = "CCCCCCCCCC(=O)Nc1ccn([C@@H]2O[C@H](COP(=O)(O)O)[C@@H](O)[C@@H]2O)c(=O)n1"
measured_on = "leukemia L-1210"
value_reported = 103

[[record]]
compound_structure = "CCCCCCCCCCCCCCCCCCC(=O)Nc1ccn([C@@H]2O[C@H](COP(=O)(O)O)[C@@H](O)[C@@H]2O)c(=O)n1"
measured_on = "leukemia L-1210"
value_reported = 385


Value of measured response vs control in vivo at 100 mg/kg for the entry `CCC(=O)Nc1ccn([C@@H]2O[C@H](COP(=O)(O)O)[C@@H](O)[C@@H]2O)c(=O)n1` : 99

Value of measured response vs control in vivo at 100 mg/kg for the entry `CCCCCCCCCCCCCCC(=O)Nc1ccn([C@@H]2O[C@H](CO)[C@@H](O)[C@@H]2O)c(=O)n1` : 302

Value of measured response vs control in vivo at 100 mg/kg for the entry `CCCCCCCCCCCCCCCCCCC(=O)Nc1ccn([C@@H]2O[C@H](CO)[C@@H](O)[C@@H]2O)c(=O)n1` : 382

----------
test: Solubility test: solubility in water; format: physicochemical
# Lookup of reported solubility keyed by entry
// return numeric value only (unit: µg/mL, not printed)

[[record]]
compound_structure = "CCCCCCCC/C=C\\CCCCCCCC(=O)Nc1ccn([C@@H]2O[C@H](CO)[C@@H](O)[C@@H]2O)c(=O)n1"
value_unit = "µg/mL"
value_reported = 50

[[record]]
compound_structure = "O=C(Nc1ccn([C@@H]2O[C@H](CO)[C@@H](O)[C@@H]2O)c(=O)n1)C12CC3CC(CC(C3)C1)C2"
value_unit = "µg/mL"
value_reported = 10


Value of measured solubility for the entry `CCCCCCCCCCCCCCCC(=O)Nc1ccn([C@@H]2O[C@H](CO)[C@@H](O)[C@@H]2O)c(=O)n1` : 10

----------
assay: Solubility test: solubility in water; assay type: physicochemical
readout_label: Solubility in water

[[record]]
compound = "CCCCCCCCCCCCCCCCC(=O)Nc1ccn([C@@H]2O[C@H](COP(=O)(O)O)[C@@H](O)[C@@H]2O)c(=O)n1 [N^4 -Margaroyl-5'-PNa2]"
readout_label = "Solubility in water"
value_reported = "> 50 mg/mL"


Value of measured Solubility in water for the entry CCCCCCCCCCCCCCCCCCCCCCCCCCCC(=O)Nc1ccn([C@@H]2O[C@H](COP(=O)(O)O)[C@@H](O)[C@@H]2O)c(=O)n1 [N^4 -Montanoyl-5'-PNa] : 1 mg/mL

Value of measured Solubility in water for the entry CCCCCCCCCCCCCCCC(=O)Nc1ccn([C@@H]2O[C@H](COP(=O)(O)O)[C@@H](O)[C@@H]2O)c(=O)n1 [N^4 -Palmitoyl-5'-PNa2] : > 150 mg/mL
